CNS TD listing for selected molecules.
Tested on: ICR mice
Protocol text: Assessment of CNS effects (spontaneous locomotion, sedation, catalepsy), threshold dose
Format: in vivo
Test context: lowest dose which shows pharmacodynamic effect (locomotion, sedation, catalepsy), oral or i.v.

- Molecule: "CN(C(=O)COc1ccc2c(c1)OCO2)[C@H](CN1CC[C@H](O)C1)c1cccc(NS(C)(=O)=O)c1"
  System tested: "ICR mice"
  Result unit: "mg/kg"
  CNS TD: 60
- Molecule: "CN(C(=O)COc1ccc(NS(=O)(=O)N(C)C)c2c1CCCN2)[C@H](CN1CC[C@H](O)C1)c1ccccc1"
  System tested: "ICR mice"
  Result unit: "mg/kg"
  CNS TD: 100
- Molecule: "CN(C(=O)COc1ccc(NS(C)(=O)=O)c2c1CCCN2)[C@H](CN1CC[C@H](O)C1)c1ccccc1"
  System tested: "ICR mice"
  Result unit: "mg/kg"
  CNS TD: 10
- Molecule: "CN(C(=O)COc1ccc(NS(C)(=O)=O)c2cccnc12)[C@H](CN1CC[C@H](O)C1)c1ccccc1"
  System tested: "ICR mice"
  Result unit: "mg/kg"
  CNS TD: 30
- Molecule: "CN(C(=O)COc1ccc(NS(C)(=O)=O)c2ncccc12)[C@H](CN1CC[C@H](O)C1)c1cccc(N)c1"
  System tested: "ICR mice"
  Result unit: "mg/kg"
  CNS TD: 30
- Molecule: "CN(C(=O)COc1ccc(NS(C)(=O)=O)c2ncccc12)[C@H](CN1CC[C@H](O)C1)c1cccc(NS(C)(=O)=O)c1"
  System tested: "ICR mice"
  Result unit: "mg/kg"
  CNS TD: 10
- Molecule: "CN1CCCc2c(OCC(=O)N(C)[C@H](CN3CC[C@H](O)C3)c3ccccc3)ccc(NS(C)(=O)=O)c21"
  System tested: "ICR mice"
  Result unit: "mg/kg"
  CNS TD: 60
- Molecule: "CN(C(=O)COc1ccc2c(c1)CCCN2S(C)(=O)=O)[C@H](CN1CC[C@H](O)C1)c1ccccc1"
  System tested: "ICR mice"
  Result unit: "mg/kg"
  CNS TD: 30
- Molecule: "CN(C(=O)COc1ccc(NS(C)(=O)=O)c2ncccc12)[C@H](CN1CC[C@H](O)C1)c1cccc(O)c1"
  System tested: "ICR mice"
  Result unit: "mg/kg"
  CNS TD: 30
